Hello, the source for this data is paper PMC12191217, in case you need it.

systemName: SARS-CoV-2 spike RBD (Wuhan-Hu-1), His-tagged (SARS-CoV-2 (Wuhan-Hu-1 strain), UniProt P0DTC2 319-541)
methodNotes: BLI; 3 mM MgCl2; 10 mM phosphate pH 7.4, 137 mM NaCl, 2.7 mM KCl, 3 mM MgCl2, 0.01% BSA, 0.002% Tween 20, 25 °C; aptamer 175-1400 nM, n=2
conditionDescription: protein: commercial; tags: His
pKd: −log10 of the molar value.
Tick T if pKd is 6 or greater. Tick F if pKd is less than 6.

Q) Form field: pKd at least 6? Entry: GUUUCGGAAGAGACAGGUACGUUAAUAGUUAAUAGCGUAC (structured_RNA) [Aptamer 40]
A) T

Q) Next binder: GAUUUUAGUCAUAGUCAGUUAGGUGGUUUACAUCUACUGA (structured_RNA) [Aptamer 11]
A) T

Q) Next binder: GAUGGUAAUGCUGCUAUCAGCGAUUAUGACUACUAUCGUU (structured_RNA) [Aptamer 62]
A) T

Q) Next binder: GCUGGUGCUGCAGCUUAUUAUGUGGGUUAUCUUCAACCUA (structured_RNA) [Aptamer 22]
A) F

Q) Next binder: CACUACCAAGAGUGUGUUAGAGGUACAACAGUACUUUUAA (structured_RNA) [Aptamer 23]
A) F
